- SYSTEM_NAME: Prostacyclin receptor (Homo sapiens) (UniProt P43119)
- Sequence (P43119 whole entry): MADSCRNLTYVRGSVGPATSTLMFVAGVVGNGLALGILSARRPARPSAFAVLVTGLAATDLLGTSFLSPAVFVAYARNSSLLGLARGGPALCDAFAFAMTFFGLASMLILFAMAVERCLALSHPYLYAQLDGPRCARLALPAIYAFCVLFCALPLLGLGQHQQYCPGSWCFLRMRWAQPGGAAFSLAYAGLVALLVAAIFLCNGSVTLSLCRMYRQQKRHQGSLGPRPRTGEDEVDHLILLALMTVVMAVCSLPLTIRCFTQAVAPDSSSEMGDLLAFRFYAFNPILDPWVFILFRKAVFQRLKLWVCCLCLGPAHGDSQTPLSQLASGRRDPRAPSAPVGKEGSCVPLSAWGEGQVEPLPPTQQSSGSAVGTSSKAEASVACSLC
- RUN_DESCRIPTION: The compound was evaluated for the affinity towards Prostaglandin I2 receptor
PARAMETER_MEASURED: KF

COMPOUND | SYSTEM_NAME | READOUT_NUMBER
O=C(O)CCCCC(=O)C[C@H]1C(=O)C[C@@H](O)[C@@H]1/C=C/[C@@H](O)C1CCCCC1 | Prostacyclin receptor (Homo sapiens) (UniProt P43119) | 58

(P) CCCCC[C@H](O)/C=C/[C@H]1[C@H](O)CC(=O)[C@@H]1CC(=O)CCCCC(=O)O
(Q) CC#CCC(C)[C@H](O)/C=C/[C@H]1[C@H](O)CC(=O)[C@@H]1CC(=O)CCCCC(=O)O (some centres undefined)
(R) CCC#CC[C@H](C)[C@H](O)C#C[C@H]1[C@H](O)CC(=O)[C@@H]1CC(=O)CCCCC(=O)O
Sort ascending by KF. The response must list the labels following the requested ordering.
R, Q, P

---

- RUN_DESCRIPTION: The compound was evaluated for the affinity towards PGE-2 receptor
PARAMETER_MEASURED: KF

Worked examples follow.
COMPOUND | KF
CC#CCC(C)[C@H](O)/C=C/[C@H]1[C@H](O)CC(=O)[C@@H]1CC(=O)CCCCC(=O)O (stereo not given in full) | 140
CCCCC[C@H](O)/C=C/[C@H]1[C@H](O)CC(=O)[C@@H]1CC(=O)CCCCC(=O)O | 7.1

(1) CCC#CC[C@H](C)[C@H](O)C#C[C@H]1[C@H](O)CC(=O)[C@@H]1CC(=O)CCCCC(=O)O
(2) CCC#CC[C@H](C)[C@H](O)C#C[C@@H]1[C@@H](CC(=O)CCCCC(=O)O)[C@H](F)C[C@H]1O
Could you kindly indicate whether 1 or 2 has the higher KF value? In your reply, give the label of the chosen option.
2
(2: 700, 1: 7.5)
